Biological target: T1, Cynomolgus PSGL-1(ECD)-HIS (cynomolgus macaque)
T1 construct: also called Cyno PSGL1-His
T1 chain: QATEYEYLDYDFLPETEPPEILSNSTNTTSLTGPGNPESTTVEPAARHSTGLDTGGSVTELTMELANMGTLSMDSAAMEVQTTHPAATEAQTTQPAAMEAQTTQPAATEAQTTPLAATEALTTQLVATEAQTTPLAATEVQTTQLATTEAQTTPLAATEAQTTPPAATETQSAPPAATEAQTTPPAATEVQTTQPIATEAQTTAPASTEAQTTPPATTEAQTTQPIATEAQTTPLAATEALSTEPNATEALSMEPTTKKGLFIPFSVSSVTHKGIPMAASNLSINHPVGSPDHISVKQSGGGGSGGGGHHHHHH
Test: ELISA, plate cyno PSGL-1(ECD)-HIS
endpoint: pEC50
In simple prose, pEC50 is minus the logarithm base ten of a concentration in moles per litre.

As a guide, the following entries are already answered.
2E12 (antibody, V domains shown, Mouse hybridoma mAb; only variable domains given) VH: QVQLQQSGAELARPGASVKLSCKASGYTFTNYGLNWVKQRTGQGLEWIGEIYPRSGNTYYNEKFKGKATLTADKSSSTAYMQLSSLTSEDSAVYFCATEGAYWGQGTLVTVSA VL: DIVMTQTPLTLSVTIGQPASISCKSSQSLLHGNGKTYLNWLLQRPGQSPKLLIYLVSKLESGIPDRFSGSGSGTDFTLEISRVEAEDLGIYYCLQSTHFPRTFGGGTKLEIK :: 9.24
18L13 (antibody, V domains shown, Mouse hybridoma mAb; only variable domains given) VH: EVQLQQSGAELVRPGASVKLSCTASGFNIKDDFMHWVKQRPEQGLEWIGRIDPASGKTEYVPKFQDKATLTADTSSNTAYLQLSSLTSEDTAVYYCARRIAYWGQGTLVTVSA VL: DVVMTQTPLTLSVTIGQPASISCKSSQSLLHSNGKTYLNWLLQRPGQSPKLLIYLVSKLESGLPDRFSGSGSGTDFSLKISRVEAEDLGVYYCLQTTHFPQTFGGGTKLEIK :: 9.12

Please examine the following record next.
Incoming: Data request, read-out pEC50, for 5E12 (antibody, V domains shown, Mouse hybridoma mAb; only variable domains given) VH: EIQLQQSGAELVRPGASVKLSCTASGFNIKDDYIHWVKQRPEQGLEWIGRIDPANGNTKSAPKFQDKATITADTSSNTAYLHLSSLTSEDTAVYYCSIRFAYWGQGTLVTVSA VL: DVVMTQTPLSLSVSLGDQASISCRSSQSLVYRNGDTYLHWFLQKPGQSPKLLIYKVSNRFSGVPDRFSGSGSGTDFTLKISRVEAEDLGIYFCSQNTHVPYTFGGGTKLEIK
Outgoing: 9.23
